Endpoint summary: Ki, system: UniProt:P32245, multiple sources combined.
Kindly answer with a numeric value in nM, unit omitted.

Qu. State its Ki on UniProt:P32245: "CCN(Cc1ccc(OC)cc1)CC1(N2CCN(C(=O)[C@H]3CN(C(C)C)C[C@@H]3c3ccc(Cl)cc3)CC2)CCCCC1"
Ans. 190

Qu. State its Ki on UniProt:P32245: O=C(Cc1ccccc1)NCC1(N2CCN(C(=O)[C@@H](Cc3ccc(Cl)cc3)NC(=O)C3NCc4ccccc43)CC2)CCCCC1 (some centres not stated)
Ans. 99

Qu. State its Ki on UniProt:P32245: "CC(C)C[C@H](NC(=O)CCN)c1cc(C(F)(F)F)ccc1N1CCN(C(=O)CCc2ccc(Cl)cc2Cl)CC1"
Ans. 25

Qu. State its Ki on UniProt:P32245: "CCC(=O)N1C[C@H](C(=O)N2CCN(C3(CNCc4ccccc4)CCCCC3)CC2)[C@@H](c2ccc(Cl)cc2)C1"
Ans. 210

Qu. State its Ki on UniProt:P32245: "O=C(N[C@H](Cc1ccc(Cl)cc1)C(=O)N1CCN(c2ccccc2CN2CCCNCC2)CC1)[C@H]1Cc2ccccc2CN1"
Ans. 78

Qu. State its Ki on UniProt:P32245: "CC(C)N1C[C@H](C(=O)N2CCN(C3(CNCc4ccc(N(C)C)cc4)CCCCC3)CC2)[C@@H](c2ccc(Cl)cc2)C1"
Ans. 65

Qu. State its Ki on UniProt:P32245: "CC(C)CC(=O)N[C@H](Cc1ccc(Cl)cc1)C(=O)N1CCN(C2(CNC(=O)Cc3ccccc3)CCCCC2)CC1"
Ans. 270

* * *

Endpoint summary: pKi, system: Melanocortin receptor 4 (Homo sapiens, UniProt P32245), multiple sources combined.
Sequence (P32245 whole entry): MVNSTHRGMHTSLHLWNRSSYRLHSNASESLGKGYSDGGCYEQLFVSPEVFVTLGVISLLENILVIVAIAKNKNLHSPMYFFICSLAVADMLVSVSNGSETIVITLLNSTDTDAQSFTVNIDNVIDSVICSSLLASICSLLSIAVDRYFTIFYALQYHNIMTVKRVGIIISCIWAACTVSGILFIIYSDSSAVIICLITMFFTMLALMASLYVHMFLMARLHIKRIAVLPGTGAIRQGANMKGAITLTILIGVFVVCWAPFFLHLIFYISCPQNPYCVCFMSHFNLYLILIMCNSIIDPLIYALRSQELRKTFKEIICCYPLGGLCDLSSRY
Conceptually, pKi converts a concentration in mol/L into minus its log10.

Qu. What pKi value was documented for this molecule, Cc1cc(CC(C)C(=O)N2CCN(c3ccc(C(F)(F)F)cc3[C@@H](N)CC(C)C)CC2)ccc1Cl (stereo not given in full) ?
Ans. 7.15

Qu. What pKi value was documented for this molecule, "CC(=O)N[C@@H](Cc1ccc(O)cc1)C(=O)N[C@@H](CCCN=C(N)N)C(=O)N[C@H]1CSSC[C@@H](C(N)=O)NC(=O)[C@H](Cc2c[nH]c3ccccc23)NC(=O)[C@H](CCCN=C(N)N)NC(=O)[C@@H](Cc2ccc3ccccc3c2)NC(=O)[C@H](Cc2c[nH]cn2)NC(=O)[C@H](CCC(=O)O)NC1=O" ?
Ans. 9.52

Qu. What pKi value was documented for this molecule, "CC(=O)N1C[C@@H](C(=O)N2CCN(c3ccc(C(F)(F)F)cc3[C@@H](N)CC(C)C)CC2)[C@H](c2ccc(Cl)cc2)C1" ?
Ans. 7.18

Qu. What pKi value was documented for this molecule, O=C(Cc1ccccc1)NCC1(N2CCN(C(=O)[C@@H](Cc3ccc(Cl)cc3)NC(=O)C3Cc4ccccc4N3)CC2)CCCCC1 (stereo not given in full) ?
Ans. 6.68

Qu. What pKi value was documented for this molecule, "CC(C)[C@H](N)c1cc(C(F)(F)F)ccc1N1CCN(C(=O)CCc2ccc(Cl)cc2Cl)CC1" ?
Ans. 7.13

Qu. What pKi value was documented for this molecule, CCC(C)C(N)c1cc(C(F)(F)F)ccc1N1CCN(C(=O)CCc2ccc(Cl)cc2Cl)CC1 (stereo not given) ?
Ans. 6.80

Qu. What pKi value was documented for this molecule, "O=C(N[C@H](Cc1ccc(Cl)cc1)C(=O)N1CCN(c2ccccc2CNc2ccncc2)CC1)[C@H]1Cc2ccccc2CN1" ?
Ans. 7.44

Qu. What pKi value was documented for this molecule, "CCOC(=O)N1CC[C@H](c2ccc(Cl)cc2)[C@@H]1C(=O)N1CCN(c2ccccc2[C@@H](N)C(C)C)CC1" ?
Ans. 7.03

Qu. What pKi value was documented for this molecule, CC(C)CC(O)c1ccccc1N1CCN(C(=O)[C@@H](Cc2ccc(Cl)cc2Cl)NC(=O)C2CCCNC2)CC1 (stereo not given in full) ?
Ans. 7.31

Qu. What pKi value was documented for this molecule, "Cc1ccc(N2CCN(C(=O)[C@H](C)Cc3ccc(Cl)cc3C)CC2)c([C@@H](N)CC(C)C)c1" ?
Ans. 8.23

Qu. What pKi value was documented for this molecule, "CC(C)C[C@H](N)c1cc(C(F)(F)F)ccc1N1CCN(C(=O)CCc2ccc(Cl)cc2Cl)CC1" ?
Ans. 7.13

Qu. What pKi value was documented for this molecule, CCCCCN(CCCCC)[C@H](Cc1ccc(Cl)cc1Cl)C(=O)N1CCN(c2ccccc2C(O)CC(C)C)CC1 (stereo not given in full) ?
Ans. 5.49

Qu. What pKi value was documented for this molecule, Cc1nc2c(cc1-c1cnn(C)c1)CC[C@@]1(CCN(C(=O)C(C)c3ccc(OC(F)F)nc3)C1)N2 (stereo not given in full) ?
Ans. 7.24

Qu. What pKi value was documented for this molecule, CC(C)CC(O)c1ccccc1N1CCN(C(=O)[C@@H](Cc2ccc(Cl)cc2Cl)NC(=O)CN)CC1 (stereo not given in full) ?
Ans. 7.89

Qu. What pKi value was documented for this molecule, "CC(C)C[C@@H](NC(=O)CN)c1cccnc1N1CCN(C(=O)[C@H](C)Cc2ccc(Cl)cc2Cl)CC1" ?
Ans. 8.22

Qu. What pKi value was documented for this molecule, "NC(N)=NCCC[C@H]1C[C@@H](OCc2ccc3ccccc3c2)CN1C(=O)[C@@H](Cc1ccccc1)NC(=O)[C@@H]1CCCN1" ?
Ans. 7.34

Qu. What pKi value was documented for this molecule, CCN(CC)CC(c1ccccc1)N1CCN(C)CC1 (stereo not given) ?
Ans. 7.05

Qu. What pKi value was documented for this molecule, "O=C(N[C@H](Cc1ccc(Cl)cc1)C(=O)N1CCN(c2cccc3cc[nH]c23)CC1)[C@H]1Cc2ccccc2CN1" ?
Ans. 5.32

Qu. What pKi value was documented for this molecule, "CNC(=O)[C@H](Cc1ccc2ccccc2c1)N1CCN(C(=O)[C@H](N)Cc2ccc(F)cc2)[C@@H](CCNC(N)=O)C1=O" ?
Ans. 6.44

Qu. What pKi value was documented for this molecule, "CC(C)C[C@H](NC(=O)[C@H](C)N)c1cc(C(F)(F)F)ccc1N1CCN(C(=O)[C@@H]2CN(C(C)C)C[C@H]2c2ccc(Cl)cc2)CC1" ?
Ans. 7.33

Qu. What pKi value was documented for this molecule, O=C(N[C@H](Cc1ccc(Cl)cc1)C(=O)N1CCN(c2ccccc2)CC1)C1Cc2ccccc2CN1 (stereo not given in full) ?
Ans. 4.52

Qu. What pKi value was documented for this molecule, "COc1ccc(CNCC2(N3CCN(C(=O)[C@H]4CN(C(C)C)C[C@@H]4c4ccc(Cl)cc4)CC3)CCCCC2)cc1" ?
Ans. 8.44

Qu. What pKi value was documented for this molecule, "CC(C)C[C@H](N)c1cc(C(F)(F)F)ccc1N1CCN(C(=O)[C@@H]2CN(c3ccccc3)C[C@H]2c2ccc(Cl)cc2)CC1" ?
Ans. 6.59

Qu. What pKi value was documented for this molecule, "COCC(=O)N[C@@H](Cc1cnc[nH]1)C(=O)N[C@@H](Cc1ccccc1)C(=O)N[C@@H](CCCNC(=N)N)C(=O)N[C@@H](Cc1c[nH]c2ccccc12)C(N)=O" ?
Ans. 6.46

Qu. What pKi value was documented for this molecule, CC(NC1CC1)c1ccccc1N1CCN(C(=O)[C@@H](Cc2ccc(Cl)cc2)NC(=O)[C@H]2Cc3ccccc3CN2)CC1 (stereo not given in full) ?
Ans. 7.64

Qu. What pKi value was documented for this molecule, "N=C(N)NCCC[C@@H]1C[C@H](OCc2ccc3ccccc3c2)CN1C(=O)[C@@H](Cc1ccccc1)NC(=O)[C@@H]1CCCCN1" ?
Ans. 5.65

Qu. What pKi value was documented for this molecule, "CC(C)[C@H](N)c1cccc(F)c1N1CCN(C(=O)[C@@H]2CN(CCC(F)(F)F)C[C@H]2c2ccc(Cl)cc2)CC1" ?
Ans. 6.69

Qu. What pKi value was documented for this molecule, "Cc1ccc(N2CCN(C(=O)[C@@H]3[C@@H](c4ccc(Cl)cc4)CCN3C(=O)C3CCC3)CC2)c([C@@H](N)C(C)C)c1" ?
Ans. 7.26

Qu. What pKi value was documented for this molecule, CC(C)C[C@H](N)c1cc(C(F)(F)F)ccc1N1CCN(C(=O)C(C)Cc2ccc(Cl)cc2F)CC1 (stereo not given in full) ?
Ans. 7.22

* * *

Endpoint summary: pKi, system: Melanocortin receptor 4 (Homo sapiens, UniProt P32245), multiple sources combined.
Conceptually, pKi converts a concentration in mol/L into minus its log10.

Qu. State its pKi on Melanocortin receptor 4 (Homo sapiens, UniProt P32245): "CC(=O)N[C@@H](Cc1ccc(O)cc1)C(=O)N[C@@H](CCCNC(=N)N)C(=O)N[C@H]1CSSC[C@@H](C(N)=O)NC(=O)[C@H](Cc2c[nH]c3ccccc23)NC(=O)[C@H](CCCNC(=N)N)NC(=O)[C@@H](Cc2ccccc2)NC(=O)[C@H](Cc2cncn2C)NC(=O)[C@H](CCC(=O)O)NC1=O"
Ans. 8.18

Qu. State its pKi on Melanocortin receptor 4 (Homo sapiens, UniProt P32245): CCN(CC)CC(c1ccc(F)cc1F)N1CCN(C)CC1 (stereo not drawn)
Ans. 7.00

Qu. State its pKi on Melanocortin receptor 4 (Homo sapiens, UniProt P32245): Cc1ccc(CC(C)C(=O)N2CCN(c3ccc(C(F)(F)F)cc3[C@@H](N)CC(C)C)CC2)cc1C (stereo partly drawn)
Ans. 6.62

Qu. State its pKi on Melanocortin receptor 4 (Homo sapiens, UniProt P32245): "COc1ccc(Br)cc1CCc1ccccc1-c1nc(C)c(C)n1C"
Ans. 6.85

Qu. State its pKi on Melanocortin receptor 4 (Homo sapiens, UniProt P32245): "CC(C)Oc1ccc(CNCC2(N3CCN(C(=O)[C@H]4CN(C(C)C)C[C@@H]4c4ccc(Cl)cc4)CC3)CCCCC2)cc1"
Ans. 8.68

Qu. State its pKi on Melanocortin receptor 4 (Homo sapiens, UniProt P32245): "CC(C)C[C@H](N)c1cc(C(F)(F)F)ccc1N1CCN(C(=O)[C@@H]2CN(C(C)C)C[C@H]2c2ccc(Cl)cc2)CC1"
Ans. 7.59

Qu. State its pKi on Melanocortin receptor 4 (Homo sapiens, UniProt P32245): "CN(C)[C@H]1CCc2cccc(N3CCN(C(=O)[C@@H](Cc4ccc(Cl)cc4)NC(=O)[C@H]4Cc5ccccc5CN4)CC3)c2C1"
Ans. 7.30
